experiment: molar heat capacity at constant pressure; conditions: 298.15 K; 101.33 kPa; Liquid; Large sample (1 g) DSC
In plain terms, low molar heat capacity at constant pressure, meaning strictly below 500 J/K/mol, gives satisfied, and everything else gives not satisfied.

Example cases with answers are listed next.
CCCCO [butan-1-ol]    satisfied
CCCC[N+]1(C)CCCC1.O=S(=O)([O-])C(F)(F)F [1-butyl-1-methylpyrrolidinium trifluoromethanesulfonate]    satisfied
CCn1cc[n+](C)c1.O=S(=O)([N-]S(=O)(=O)C(F)(F)F)C(F)(F)F    not satisfied

Consider now this further molecule.
Exercise: is_below(molar heat capacity at constant pressure, 500 J/K/mol) for "COCC[N+]1(C)CCCC1.O=S(=O)([N-]S(=O)(=O)C(F)(F)F)C(F)(F)F" ?
Key: not satisfied
